Quick reference for Papp B→A at 1 h, 5 µM among some compounds
EXPERIMENT DESCRIPTION: Permeability from basal to apical side of MDCK2 cells expressing MDR1 at 5 uM after 1 hr by LC-MS/MS analysis
Type: ADME, cell-based, Canis lupus familiaris, MDCK-II
DETAILS: dog, MDCK-MDR1; read-out: permeability
MEASURED METRIC: Papp B→A at 1 h, 5 µM (×10⁻⁶ cm/s)

In [3]: df
Out[3]:
                            molecule_smiles  measure_unit  val
0  CCN(CC)C(=S)c1ccc(-c2c3ccc(=[N+](C)C)cc-3sc3c4c5c(cc23)CCCN5CCC4)s1.F[P-](F)(F)(F)(F)F    ×10⁻⁶ cm/s  6.5
1  CCN(CC)C(=S)c1ccc(-c2c3ccc(=[N+](C)C)cc-3sc3cc(N(C)C)ccc23)s1.F[P-](F)(F)(F)(F)F    ×10⁻⁶ cm/s   21
2  C[N+](C)=c1ccc2c(-c3ccc(C(=O)N4CCCCC4)s3)c3cc4c5c(c3sc-2c1)CCCN5CCC4.F[P-](F)(F)(F)(F)F    ×10⁻⁶ cm/s   22
3  C[N+](C)=c1ccc2c(-c3ccc(C(=S)N4CCCCC4)s3)c3cc4c5c(c3sc-2c1)CCCN5CCC4.F[P-](F)(F)(F)(F)F    ×10⁻⁶ cm/s  8.3
4  CCN(CC)C(=O)c1ccc(-c2c3ccc(=[N+](C)C)cc-3sc3cc4c(cc23)C(C)(C)CCN4C)s1.F[P-](F)(F)(F)(F)F    ×10⁻⁶ cm/s   37
5  CCN(CC)C(=S)c1ccc(-c2c3ccc(=[N+](C)C)cc-3sc3cc4c(cc23)C(C)(C)CCN4C)s1.F[P-](F)(F)(F)(F)F    ×10⁻⁶ cm/s  6.9
6  CN1CCC(C)(C)c2cc3c(-c4ccc(C(=S)N5CCCCC5)s4)c4ccc(=[N+](C)C)cc-4sc3cc21.F[P-](F)(F)(F)(F)F    ×10⁻⁶ cm/s  3.4
7  CCN(CC)C(=O)c1ccc(-c2c3ccc(=[N+](C)C)cc-3sc3c4c5c(cc23)CCCN5CCC4)s1.F[P-](F)(F)(F)(F)F    ×10⁻⁶ cm/s   21
8  CN1CCC(C)(C)c2cc3c(-c4ccc(C(=O)N5CCCCC5)s4)c4ccc(=[N+](C)C)cc-4sc3cc21.F[P-](F)(F)(F)(F)F    ×10⁻⁶ cm/s   23

---

EXPERIMENT DESCRIPTION: Permeability from apical to basal side of MDCK2 cells expressing MDR1 assessed as fraction of mass extracted by methanol wash at 5 uM after 1 hr by LC-MS/MS analysis
Format: ADME, cell-based, Canis lupus familiaris
DETAILS: dog, mdck-ii
Listing of recorded permeability by entry.
MEASURED METRIC: permeability (%)

>>> print(df.to_string())
                            molecule_smiles  measure_unit  val
0  C[N+](C)=c1ccc2c(-c3ccc(C(=O)N4CCCCC4)s3)c3cc4c5c(c3sc-2c1)CCCN5CCC4.F[P-](F)(F)(F)(F)F             %  6.9
1  CCN(CC)C(=S)c1ccc(-c2c3ccc(=[N+](C)C)cc-3sc3cc(N(C)C)ccc23)s1.F[P-](F)(F)(F)(F)F             %   11
2  CCN(CC)C(=O)c1ccc(-c2c3ccc(=[N+](C)C)cc-3sc3c4c5c(cc23)CCCN5CCC4)s1.F[P-](F)(F)(F)(F)F             %  5.8
3  CCN(CC)C(=O)c1ccc(-c2c3ccc(=[N+](C)C)cc-3sc3cc4c(cc23)C(C)(C)CCN4C)s1.F[P-](F)(F)(F)(F)F             %   10
4  CN1CCC(C)(C)c2cc3c(-c4ccc(C(=O)N5CCCCC5)s4)c4ccc(=[N+](C)C)cc-4sc3cc21.F[P-](F)(F)(F)(F)F             %  8.6
5  CCN(CC)C(=S)c1ccc(-c2c3ccc(=[N+](C)C)cc-3sc3c4c5c(cc23)CCCN5CCC4)s1.F[P-](F)(F)(F)(F)F             %   25
6  C[N+](C)=c1ccc2c(-c3ccc(C(=S)N4CCCCC4)s3)c3cc4c5c(c3sc-2c1)CCCN5CCC4.F[P-](F)(F)(F)(F)F             %   31
7  CN1CCC(C)(C)c2cc3c(-c4ccc(C(=S)N5CCCCC5)s4)c4ccc(=[N+](C)C)cc-4sc3cc21.F[P-](F)(F)(F)(F)F             %   34
8  CCN(CC)C(=S)c1ccc(-c2c3ccc(=[N+](C)C)cc-3sc3cc4c(cc23)C(C)(C)CCN4C)s1.F[P-](F)(F)(F)(F)F             %   52

Origin of measurements: ChEMBL document CHEMBL2203082
